quantity: Ki (µM)
Record the value in µM, omitting the unit from your answer.

Exercise: Send back Protein-S-isoprenylcysteine O-methyltransferase (Saccharomyces cerevisiae S288c) Ki of "CC(C)=CCC/C(C)=C/CC/C(C)=C/CSCC(=O)O" only.
Solution: 4.6

Exercise: Send back Protein-S-isoprenylcysteine O-methyltransferase (Saccharomyces cerevisiae S288c) Ki of "CC(=O)N[C@@H](CSC/C=C(\CC=C(C)C)CC/C=C(\C)CCC=C(C)C)C(=O)O" only.
Solution: 17.1

Exercise: Send back Protein-S-isoprenylcysteine O-methyltransferase (Saccharomyces cerevisiae S288c) Ki of CC(=O)NC(C[S+]([O-])C/C=C(\C)CC/C=C(\C)CC/C=C(\C)CCC=C(C)C)C(=O)O (stereo not drawn) only.
Solution: 13.2

---

Biological target: Protein-S-isoprenylcysteine O-methyltransferase (Saccharomyces cerevisiae S288c)
Sequence (P32584 whole entry): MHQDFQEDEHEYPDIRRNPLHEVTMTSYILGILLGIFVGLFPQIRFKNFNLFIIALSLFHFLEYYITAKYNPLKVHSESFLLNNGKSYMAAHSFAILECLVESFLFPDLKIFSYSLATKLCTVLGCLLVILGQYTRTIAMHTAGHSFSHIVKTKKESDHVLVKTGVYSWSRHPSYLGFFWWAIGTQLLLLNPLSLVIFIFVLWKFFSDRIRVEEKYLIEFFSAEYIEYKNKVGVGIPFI
Assay: Inhibitory concentration against isoprenyl-cysteine carboxyl methyltransferase by Casey method; Range 7 - 14 uM
quantity: pIC50
When answering, recall that pIC50 equals minus log10 of the concentration in mol/L, and write that number alone.

Exercise: Quick one: give measured pIC50 for "CC(=O)N[C@@H](CSC/C=C(\CC=C(C)C)CC/C=C(\C)CCC=C(C)C)C(=O)O"
Solution: 4.85

---

Target: UniProt:P32584
Experiment: Inhibitory concentration against isoprenyl-cysteine carboxyl methyltransferase
quantity: IC50 (µM)
Record the value in µM, omitting the unit from your answer.

Exercise: Quick one: give measured IC50 for "CC(=O)N[C@@H](CSC/C=C(\CC=C(C)C)CC/C=C(\C)CCC=C(C)C)C(=O)O"
Solution: 44

Source of measurements: ChEMBL document CHEMBL1143650
